assaySummary: Compound B pharmacokinetics after oral administration of a single dose alone (fasting) and with ritonavir (fed), human subjects
Assay type: in vivo
experimentalContext: plasma, po, 300 mg, single oral dose 300 mg (active dose 270 mg), alone, fasting, arithmetic mean, read-out: t1/2 (terminal phase plasma half-life) (converted)
reportedProperty: half-life (h)
Record the value in h, omitting the unit from your answer.

Problem: half-life lookup needed for Cc1c(O)cccc1C(=O)N[C@@H](Cc1ccccc1)[C@H](O)C(=O)N1CC(F)(F)C(C)(C)[C@H]1C(=O)NCC(F)(F)F , thanks.
Solution: 2.76

====

assaySummary: Compound A pharmacokinetics after oral administration of a single dose with and without ritonavir, human subjects, fed
Format: in vivo
experimentalContext: plasma, po, 2000 mg, single oral dose 2000 mg, without ritonavir, arithmetic mean, read-out: t½ (terminal phase plasma half-life) (converted)
reportedProperty: half-life (h)
# number only, unit h dropped from output

Problem: Which half-life is listed for C=CCNC(=O)[C@H]1N(C(=O)[C@@H](O)[C@H](Cc2ccccc2)NC(=O)c2cccc(O)c2C)CSC1(C)C ?
Solution: 10.4

====

assaySummary: Compound A pharmacokinetics after oral administration of a single dose with and without ritonavir, human subjects, fed
Assay type: in vivo
experimentalContext: plasma, po, 3000 mg, single oral dose 3000 mg, without ritonavir, arithmetic mean, read-out: t½ (terminal phase plasma half-life) (converted)
reportedProperty: half-life (h)
Write it as a number; the unit h goes unstated.

Problem: Any idea what its half-life is? The compound is C=CCNC(=O)[C@H]1N(C(=O)[C@@H](O)[C@H](Cc2ccccc2)NC(=O)c2cccc(O)c2C)CSC1(C)C
Solution: 7.6

====

assaySummary: Compound B pharmacokinetics after oral administration of a single dose alone (fasting) and with ritonavir (fed), human subjects
Type: in vivo
experimentalContext: plasma, po, 3600 mg, single oral dose 3600 mg (active dose 3240 mg), alone, fasting, geometric mean, read-out: AUC (area under the concentration-time curve from time 0 to infinity)
reportedProperty: AUC (µg·h/mL)
Just the number please, in µg·h/mL, no unit attached.

Problem: Requested field: AUC. Item: Cc1c(O)cccc1C(=O)N[C@@H](Cc1ccccc1)[C@H](O)C(=O)N1CC(F)(F)C(C)(C)[C@H]1C(=O)NCC(F)(F)F [Compound B]
Solution: 164

====

assaySummary: Compound B pharmacokinetics after oral administration of a single dose alone (fasting) and with ritonavir (fed), human subjects
Format: in vivo
experimentalContext: plasma, single oral dose 300 mg (active 270 mg) + ritonavir (100 mg every 12 hours for 3 doses), fed, geometric mean, read-out: AUC (area under the concentration-time curve from time 0 to infinity)
Experimental: Nos. 11/008325, filed Dec. 8, 2004, and 60/591,351, filed Jul. 26, 2004, all of which are hereby incorporated by reference for this purpose. A total of 21 human subjects were administered a single 300 mg, 900 mg, 1800 mg, or 3600 mg dose of a spray-dried composition comprising 90 wt % amorphous Compound B and 10 wt % hydroxypropyl methyl cellulose acetate succinate (HPMCAS) under fasting conditions. […]
reportedProperty: AUC

Problem: Suppose we examine the compound Cc1c(O)cccc1C(=O)N[C@@H](Cc1ccccc1)[C@H](O)C(=O)N1CC(F)(F)C(C)(C)[C@H]1C(=O)NCC(F)(F)F [Compound B] ; what AUC value has been reported?
Solution: 34800 ng·h/mL
